- System: Acinetobacter calcoaceticus AC 54
A collection of compounds and their measured MIC
All answers are understood in µg/mL, so give the number only.

# count of solved cases: 3
>>> recorded_number("CN1CCN(c2c(F)cc3c(=O)c(C(=O)O)c4scc5n4c3c2OC5)CC1 [Compound (A)]")
0.2
>>> recorded_number("O=C(O)c1c(=O)c2cc(F)c(N3CCN(O)CC3)c3c2n2c(csc12)CO3 [Compound (F)]")
1.56
>>> recorded_number("O=C(O)c1c(=O)c2cc(F)c(N3CCCC3)c3c2n2c(csc12)CO3 [Compound (G)]")
0.2

Exercise: Lookup: MIC / Acinetobacter calcoaceticus AC 54 / O=C(O)c1c(=O)c2cc(F)c(N3CCNCC3)c3c2n2c(csc12)CO3 [Compound (C)]
Key: 0.78

---

- Tested on: Klebsiella pneumoniae PCI 602
- experimental protocol: Minimum inhibitory concentration (MIC)
- Format: cell-based
- condition label: Klebsiella pneumoniae, PCI602, Klebsiella pneumoniae PCI 602, Gram -; read-out: Minimum inhibitory concentration (MIC)
A collection of compounds and their measured MIC
All answers are understood in µg/mL, so give the number only.

Exercise: Item CC1CN(c2c(F)cc3c(=O)c(C(=O)O)c4scc5n4c3c2OC5)CCN1 (centres unmarked) [Compound (E)] has what recorded MIC?
Key: 0.025

Exercise: Item O=C(O)c1c(=O)c2cc(F)c(N3CCN(O)CC3)c3c2n2c(csc12)CO3 has what recorded MIC?
Key: 0.025

Exercise: Item CC1COc2c(N3CCN(C)CC3)c(F)cc3c(=O)c(C(=O)O)cn1c23 (racemic) [Ofloxacin, reference compound] has what recorded MIC?
Key: 0.05

---

- Tested on: Proteus vulgaris OX-19
- experimental protocol: Minimum inhibitory concentration (MIC)
- Format: cell-based
- condition label: OX19; Proteus vulgaris OX-19, Gram -; read-out: Minimum inhibitory concentration (MIC)
A collection of molecules and their measured MIC
All answers are understood in µg/mL, so give the number only.

# count of solved cases: 5
>>> recorded_number("NC1CCN(c2c(F)cc3c(=O)c(C(=O)O)c4scc5n4c3c2OC5)C1 (centres unmarked)")
0.2
>>> recorded_number("O=C(O)c1c(=O)c2cc(F)c(N3CCN(O)CC3)c3c2n2c(csc12)CO3")
0.05
>>> recorded_number("CCN1CCN(c2c(F)cc3c(=O)c(C(=O)O)c4scc5n4c3c2OC5)CC1")
0.05
>>> recorded_number("O=C(O)c1c(=O)c2cc(F)c(N3CCCC3)c3c2n2c(csc12)CO3")
0.1
>>> recorded_number("O=C(O)c1c(=O)c2cc(F)c(N3CCNCC3)c3c2n2c(csc12)CO3")
0.1

Exercise: Item CN1CCN(c2c(F)cc3c(=O)c(C(=O)O)c4scc5n4c3c2OC5)CC1 has what recorded MIC?
Key: 0.05

Exercise: Item O=C(O)c1c(=O)c2cc(F)c(N3CCC(O)C3)c3c2n2c(csc12)CO3 (centres unmarked) has what recorded MIC?
Key: 0.0125

Exercise: Item CC1COc2c(N3CCN(C)CC3)c(F)cc3c(=O)c(C(=O)O)cn1c23 (racemic) [Ofloxacin, reference compound] has what recorded MIC?
Key: 0.05

---

A collection of compounds and their measured MIC
- Tested on: Pseudomonas aeruginosa E-2
- experimental protocol: Minimum inhibitory concentration (MIC)
- Assay type: cell-based
- condition label: E2; Pseudomonas aeruginosa E-2, Gram -
All answers are understood in µg/mL, so give the number only.

>>> recorded_number("CCN1CCN(c2c(F)cc3c(=O)c(C(=O)O)c4scc5n4c3c2OC5)CC1 [Compound (J)]")
1.56

Exercise: Item CC1COc2c(N3CCN(C)CC3)c(F)cc3c(=O)c(C(=O)O)cn1c23 (racemic) [Ofloxacin, reference compound] has what recorded MIC?
Key: 1.56

Exercise: Item O=C(O)c1c(=O)c2cc(F)c(N3CCNCC3)c3c2n2c(csc12)CO3 [Compound (C)] has what recorded MIC?
Key: 0.78

Exercise: Item O=C(O)c1c(=O)c2cc(F)c(N3CCN(O)CC3)c3c2n2c(csc12)CO3 [Compound (F)] has what recorded MIC?
Key: 1.56

---

A collection of molecules and their measured MIC
- Tested on: Acinetobacter calcoaceticus AC 54
All answers are understood in µg/mL, so give the number only.

# count of solved cases: 4
>>> recorded_number("O=C(O)c1c(=O)c2cc(F)c(N3CCC(O)C3)c3c2n2c(csc12)CO3 (centres unmarked)")
0.1
>>> recorded_number("CCN1CCN(c2c(F)cc3c(=O)c(C(=O)O)c4scc5n4c3c2OC5)CC1")
0.1
>>> recorded_number("CC1CN(c2c(F)cc3c(=O)c(C(=O)O)c4scc5n4c3c2OC5)CCN1 (centres unmarked) [Compound (E)]")
0.78
>>> recorded_number("CC1COc2c(N3CCN(C)CC3)c(F)cc3c(=O)c(C(=O)O)cn1c23 (racemic) [Ofloxacin, reference compound]")
0.39

Please find the next molecule below.
Exercise: Lookup: MIC / Acinetobacter calcoaceticus AC 54 / NC1CCN(c2c(F)cc3c(=O)c(C(=O)O)c4scc5n4c3c2OC5)C1 (centres unmarked)
Key: 0.78

---

- Test system: Klebsiella pneumoniae PCI 602
- experimental protocol: Minimum inhibitory concentration (MIC)
- Format: cell-based
- condition label: Klebsiella pneumoniae, PCI602, Klebsiella pneumoniae PCI 602, Gram -; read-out: Minimum inhibitory concentration (MIC)
property: MIC (µg/mL)
All answers are understood in µg/mL, so give the number only.

# count of solved cases: 4
>>> recorded_number("O=C(O)c1c(=O)c2cc(F)c(N3CCC(O)C3)c3c2n2c(csc12)CO3 (centres unmarked) [Compound (H)]")
0.006
>>> recorded_number("O=C(O)c1c(=O)c2cc(F)c(N3CCNCC3)c3c2n2c(csc12)CO3 [Compound (C)]")
0.05
>>> recorded_number("CCN1CCN(c2c(F)cc3c(=O)c(C(=O)O)c4scc5n4c3c2OC5)CC1 [Compound (J)]")
0.025
>>> recorded_number("CN1CCN(c2c(F)cc3c(=O)c(C(=O)O)c4scc5n4c3c2OC5)CC1 [Compound (B)]")
0.025

Exercise: Lookup: MIC / Klebsiella pneumoniae PCI 602 / O=C(O)c1c(=O)c2cc(F)c(N3CCCC3)c3c2n2c(csc12)CO3 [Compound (G)]
Key: 0.1

Data origin, for the record: patent US4808584A
